Below: a set of entries, each annotated with reported viscosity.
# Condition Notes: 298.15 K; 101 kPa; Liquid; Capillary tube (Ostwald / Ubbelohde) method
± gives the expanded uncertainty stated by the source.

c1ccccc1 [benzene]    0.603 ± 0.007 mPa·s
Cc1ccccc1C [1,2-dimethylbenzene]    0.758 ± 0.008 mPa·s
COC(=O)CCCCl [methyl 4-chlorobutanoate]    1.519 ± 0.01 mPa·s
Cc1cccc(C)c1 [1,3-dimethylbenzene]    0.587 ± 0.007 mPa·s

Attention now turns to another entry.
Entry under test: Cc1ccc(C)cc1 [1,4-dimethylbenzene] . Its viscosity was 0.609 ± 0.007 mPa·s

----------
# Method Summary: xn = mol fraction of the nth substance listed
# Condition Notes: 308.15 K; 101 kPa; Liquid; Capillary tube (Ostwald / Ubbelohde) method; x1 = 0.3
Below: a set of entries, each annotated with reported viscosity.
Give the number; mPa·s is assumed, so skip it.

Consider the worked cases shown below.
COC(=O)CCCCl [methyl 4-chlorobutanoate] + Cc1ccccc1    0.662
COC(=O)CCCCl [methyl 4-chlorobutanoate] + Cc1ccccc1C    0.808
COC(=O)CCCCl [methyl 4-chlorobutanoate] + Cc1ccc(C)cc1    0.679

Attention now turns to another entry.
Entry under test: COC(=O)CCCCl [methyl 4-chlorobutanoate] + c1ccccc1 . Its viscosity was 0.69

----------
# Method Summary: xn = mol fraction of the nth substance listed
# Condition Notes: 298.15 K; 101 kPa; Liquid; Vibrating tube method; x1 = 0.7
Below: a set of entries, each annotated with reported mass density.
Give the number; kg/m3 is assumed, so skip it.

Consider the worked cases shown below.
COC(=O)CCCCl [methyl 4-chlorobutanoate] + Cc1ccccc1    1047.84
COC(=O)CCCCl [methyl 4-chlorobutanoate] + c1ccccc1    1058.82
COC(=O)CCCCl [methyl 4-chlorobutanoate] + Cc1ccc(C)cc1    1038.03

Attention now turns to another entry.
Entry under test: COC(=O)CCCCl [methyl 4-chlorobutanoate] + Cc1ccccc1C . Its mass density was 1044.53

----------
# Method Summary: xn = mol fraction of the nth substance listed
# Condition Notes: 298.15 K; 101 kPa; Liquid; Vibrating tube method; x1 = 0.8
Numbers after ± are expanded uncertainties.
Measurement Type: mass density

Consider the worked cases shown below.
COC(=O)CCCCl [methyl 4-chlorobutanoate] + Cc1ccccc1C    1068.71 ± 0.13 kg/m3
COC(=O)CCCCl [methyl 4-chlorobutanoate] + c1ccccc1    1079.42 ± 0.13 kg/m3
COC(=O)CCCCl [methyl 4-chlorobutanoate] + Cc1ccccc1    1071.31 ± 0.13 kg/m3

Entry under test: COC(=O)CCCCl [methyl 4-chlorobutanoate] + Cc1ccc(C)cc1 . Its mass density was 1063.99 ± 0.13 kg/m3

----------
# Condition Notes: 308.15 K; 101 kPa; Liquid; Vibrating tube method
Measurement Type: mass density (kg/m3)
Give the number; kg/m3 is assumed, so skip it.

Consider the worked cases shown below.
Cc1ccccc1 [toluene]    852.81
c1ccccc1 [benzene]    862.28

Entry under test: Cc1ccc(C)cc1 [1,4-dimethylbenzene] . Its mass density was 847.96

Entry under test: Cc1cccc(C)c1 [1,3-dimethylbenzene] . Its mass density was 851.19

Entry under test: Cc1ccccc1C [1,2-dimethylbenzene] . Its mass density was 866.62
